Value source: the antibiotic and cytotoxicity screens of Wong et al. (2023)

System: S. aureus RN4220
Assay Notes: growth inhibition call (relative growth <= 0.2)
Reported Conditions: 50 µM
Out of some 39,000 compounds screened, about 500 (1.3%) were called active. The entries come from a sample that favours actives as a whole.
Assay Readout: growth inhibition call

// solved cases for growth inhibition call follow
Compound | Tested On | growth inhibition call
COc1cccc(OC)c1C(=O)NCCCO | S. aureus RN4220 | inactive
COc1ccc2c3c([nH]c2c1)[C@H](CO)N(C[C@]13CCN(CC1)CC1CCCC1)C(=O)Nc1cccc(c1)F | S. aureus RN4220 | inactive
CCOc1ccc2ccccc2c1C(=O)NC1C(=O)N2C1SC(C)(C)C2C(=O)[O-].[Na+] (centres undefined) | S. aureus RN4220 | active
COc1ccc2c3c([nH]c2c1)[C@@H](CO)N(C[C@]13CCN(CC1)Cc1ccc(cc1)F)C(=O)Nc1ccc(cc1)F | S. aureus RN4220 | active
COc1ccc(cc1)CN1CC[C@]2(CC1)CN([C@H](CO)c1[nH]c3cc(ccc3c12)OC)C(=O)Nc1ccc(cc1)F | S. aureus RN4220 | inactive
COc1cccc(OC)c1C(=O)NC1C(=O)N2C1SC(C)(C)C2C(=O)[O-].[Na+] (centres undefined) | S. aureus RN4220 | active
Cc1ccc(S(=O)(=O)Nc2ccc3c(c2)CC(=O)N([C@@H](C)CO)C[C@@H](C)[C@@H](CN(C)CC2CC2)O3)cc1 | S. aureus RN4220 | inactive
CN(C)c1cc[n+](C(=O)N2CCOCC2)cc1 | S. aureus RN4220 | inactive

# evaluate next
growth inhibition call lookup needed for COc1cccc(OC)c1C(=O)NN , thanks.
inactive

----------
Tested on: S. aureus RN4220
Assay Notes: growth inhibition call (relative growth <= 0.2)
Reported Conditions: 50 µM
The campaign covered roughly 39,000 compounds. About 500 (1.3%) were called active. The sample as a whole holds a higher share of actives than the screen did.
Assign a class; possible classes are active, inactive

# count of solved cases: 3
Given Smiles | Cat
Cl.N=C(N)n1cccn1 | active
C[C@H]1CN([C@@H](C)CO)C(=O)c2cc(C#Cc3ccc(F)cc3)cnc2O[C@@H]1CN(C)CC1CCOCC1 | inactive
NCCn1cccn1 | inactive

Test call, this compound: CC(=O)O[C@@H]1CC[C@@]2(C)[C@@H](CC[C@]3(C)[C@@H]2C(=O)C=C2[C@@H]4[C@@H](C)[C@H](C)CC[C@]4(C)CC[C@]23C)[C@@]1(C)C(=O)O
active

Another compound to look at: CCCNC(=O)N1C[C@H](O)COC[C@@H]2O[C@H](CC(=O)N3CCN(C)CC3)CC[C@H]21
inactive

Another compound to look at: CC1(C)[C@@H](OC(=O)CCC(=O)O)CC[C@@]2(C)[C@H]1CC[C@]1(C)[C@H]2C(=O)C=C2[C@@H]3C[C@@](C)(C(=O)O)CC[C@]3(C)CC[C@]21C
inactive

Another compound to look at: CN(C)CCN1C[C@@H]2CN(C(=O)c3cnc[nH]3)C[C@H]2C1=O
inactive

Another compound to look at: Cc1cc(C(=O)Nc2cccc3c2O[C@H](CN(C)Cc2ccc4c(c2)OCO4)[C@H](C)CN([C@@H](C)CO)C3=O)n(C)n1
inactive

----------
System: S. aureus RN4220
Assay Notes: growth inhibition call (relative growth <= 0.2)
Reported Conditions: 50 µM
Screen size: about 39,000 compounds; about 500 (1.3%) were called active. Many of the other results were omitted from the sample, so actives are more common in it than they were.
Assign a class; possible classes are Y (active), N (inactive)

Given Smiles | Tested On | Cat
C[C@@H]1CN([C@@H](C)CO)C(=O)c2cccc(NS(=O)(=O)c3ccc(F)cc3)c2O[C@H]1CN(C)C(=O)Nc1ccc(C(F)(F)F)cc1 | S. aureus RN4220 | N
COc1ccc2c3c(n(c2c1)C)[C@H](CO)N(Cc1cc(cc(c1)OC)OC)C[C@]13CN(C1)C(=O)NC(C)C | S. aureus RN4220 | N
O=C1OC2(c3ccc(O)cc3Oc3cc(O)ccc32)c2ccccc21 | S. aureus RN4220 | N
COCC#Cc1cnc2c(c1)C(=O)N([C@H](C)CO)C[C@@H](C)[C@H](CN(C)C(=O)Nc1ccc(OC)cc1)O2 | S. aureus RN4220 | N
O=C1OC2(c3ccccc31)c1cc(I)c(O)c(I)c1Oc1c2cc(I)c(O)c1I | S. aureus RN4220 | Y

Test call, this molecule: C[C@@H]1CCCCO[C@H](CN(C)C(=O)Nc2cccc3ccccc23)[C@@H](C)CN([C@@H](C)CO)C(=O)c2cc(NC(=O)Nc3ccc(F)cc3)ccc2O1
N

Another molecule to look at: O=C1OC(c2cc(I)c(O)c(I)c2)(c2cc(I)c(O)c(I)c2)c2ccccc21
N

Another molecule to look at: Cc1ccc(S(=O)(=O)Nc2ccc3c(c2)C(=O)N([C@@H](C)CO)C[C@H](C)[C@@H](CN(C)CC2CCCCC2)OCCCC[C@H](C)O3)cc1
N

----------
System: S. aureus RN4220
Assay Notes: growth inhibition call (relative growth <= 0.2)
Reported Conditions: 50 µM
The campaign covered roughly 39,000 compounds. About 500 (1.3%) were called active. The sample as a whole holds a higher share of actives than the screen did.
Assign a class; possible classes are yes (1) (active), no (0) (inactive)

Compound | Tested On | Cat
C[C@@H]1CN([C@H](C)CO)C(=O)c2cccc(NS(C)(=O)=O)c2O[C@H]1CN(C)Cc1ccc(C(=O)O)cc1 | S. aureus RN4220 | no (0)
C[C@H]1CN([C@@H](C)CO)C(=O)c2cccc(NC(=O)Nc3cccc4ccccc34)c2O[C@@H]1CN(C)C(=O)Nc1cccc2ccccc12 | S. aureus RN4220 | no (0)
C[C@H](O)[C@H](O)[C@@H](O)[C@@H](O)/C=N/NC(=O)c1ccc(C(=O)NO)cc1 | S. aureus RN4220 | no (0)

Test call, this compound: C[C@H](CO)N1C[C@H](C)[C@@H](CN(C)Cc2ccc(Oc3ccccc3)cc2)Oc2ccc(NC(=O)c3ccncc3)cc2C1=O
no (0)

Another compound to look at: CCC1OC(=O)C(C)C(OC2CC(C)(OC)C(O)C(C)O2)C(C)C(OC2OC(C)CC(N(C)C)C2O)C(C)(OC)CC(C)C(=O)C(C)C(O)C1(C)O (centres undefined)
yes (1)

----------
System: S. aureus RN4220
Assay Notes: growth inhibition call (relative growth <= 0.2)
Reported Conditions: 50 µM
Screen size: about 39,000 compounds; about 500 (1.3%) were called active. For the sample, actives were picked, then their nearest neighbours and some compounds at random.
Assign a class; possible classes are active, inactive

# count of solved cases: 3
Compound | Cat
C[C@H](CO)N1C[C@H](C)[C@@H](CN(C)S(=O)(=O)c2cn(C)cn2)Oc2ccc(NC(=O)C3CC3)cc2C1=O | inactive
CO[C@H]1CN(C)C(=O)c2ccc(NS(=O)(=O)c3ccccc3C)cc2OC[C@@H](C)N(S(C)(=O)=O)C[C@@H]1C | inactive
C[C@H](CO)N1C[C@H](C)[C@H](CN(C)S(=O)(=O)c2ccccc2)Oc2ccc(NS(C)(=O)=O)cc2C1=O | inactive

Lab note: next compound to report on.
Test call, this compound: C[C@H](CO)N1C[C@H](C)[C@@H](CN(C)S(=O)(=O)c2cccs2)OCCCC[C@H](C)Oc2ccc(NC(=O)Nc3cccc4ccccc34)cc2C1=O
inactive

----------
Tested on: S. aureus RN4220
Assay Notes: growth inhibition call (relative growth <= 0.2)
Reported Conditions: 50 µM
In all, about 39,000 compounds went through this assay and about 500 (1.3%) were called active. Many of the other results were omitted from the sample, so actives are more common in it than they were.
Assign a class; possible classes are 1 = active, -1 = inactive

# count of solved cases: 10
Compound | Cat
CC(C)NC(=O)Nc1ccc2c(c1)CC(=O)N([C@@H](C)CO)C[C@@H](C)[C@@H](CN(C)S(=O)(=O)c1ccc(F)cc1)O2 | -1
CCn1cc(C(=O)O)c(=O)c2cc(F)c(N3CCN(C)CC3)cc21.CS(=O)(=O)O | 1
C[C@H](CO)N1C[C@H](C)[C@H](CN(C)C)OCCCC[C@H](C)Oc2ccc(NS(=O)(=O)c3cn(C)cn3)cc2C1=O | -1
C[C@H]1CN([C@@H](C)CO)S(=O)(=O)c2ccc(C#CC(C)(C)O)cc2O[C@H]1CN(C)Cc1ccc(F)cc1 | -1
O=C(C[C@@H]1CC[C@H]2[C@@H](COC[C@@H](O)CN2S(=O)(=O)c2ccc(Cl)cc2)O1)N1CCc2ccccc2C1 | -1
C[C@@H]1CN([C@@H](C)CO)S(=O)(=O)c2ccc(C#Cc3ccncc3)cc2O[C@H]1CN(C)C(=O)C1CCOCC1 | -1
CC[C@@H](C)CCCCC(=O)N[C@@H](CCN)C(=O)N[C@H](C(=O)N[C@@H](CCN)C(=O)N[C@H]1CCNC(=O)[C@H]([C@@H](C)O)NC(=O)[C@H](CCN)NC(=O)[C@H](CCN)NC(=O)[C@H](CC(C)C)NC(=O)[C@@H](Cc2ccccc2)NC(=O)[C@@H](CCN)NC1=O)[C@@H](C)O | -1
CN1CCN(C(=O)C[C@H]2CC[C@@H]3[C@H](COc4ccc(NC(=O)c5cscn5)cc4C(=O)N3C)O2)CC1 | -1
CN(C)CC(=O)N[C@H]1CC[C@@H](CC(=O)O)O[C@H]1CO | -1
COc1ccc(NC(=O)N(C)C[C@@H]2OCCCC[C@H](C)Oc3ccc(NC(=O)C4CCCCC4)cc3C(=O)N([C@H](C)CO)C[C@H]2C)cc1 | -1

Test call, this compound: CCC(C)CCCCC(=O)NC(CCN)C(=O)NC(C(=O)NC(CCN)C(=O)NC1CCNC(=O)C(C(C)O)NC(=O)C(CCN)NC(=O)C(CCN)NC(=O)C(CC(C)C)NC(=O)C(Cc2ccccc2)NC(=O)C(CCN)NC1=O)C(C)O.O=S(=O)(O)O (stereo not drawn)
1

Another compound to look at: C[C@H](CO)N1C[C@H](C)[C@@H](CN(C)C(=O)Nc2ccc3c(c2)OCO3)OCCCC[C@H](C)Oc2ccc(NC(=O)Nc3ccc(F)cc3)cc2C1=O
-1

Another compound to look at: O=C(C[C@@H]1CC[C@H](NC(=O)Cc2ccccn2)[C@H](CO)O1)NCCCN1CCOCC1
-1
